Reported fractional viability values follow for various molecules
Test system: TYKNU
Assay: fractional viability relative to vehicle; higher = less growth inhibition
Details: 2uM; 72 h; genotype: DNM1L knockout (sgDNM1L #1)
The full ranking holds about 2,000 compounds; the median of “fractional viability relative to vehicle” is about 0.91, and the lowest 2% start at about 0.045. Shown is part of a subset that was picked to be rich in the lowest values.
Respond numerically, and do not add a unit to the figure.

O=S(=O)(CC1CS1)c1ccc(Oc2ccccc2)cc1 (configuration not stated) = 0.744
C[C@@H]1[C@H](O)[C@@H](C)/C=C/C=C/CC/C=C/C=C/C=C/C=C/[C@H](O[C@H]2O[C@@H](C)[C@H](O)[C@@H](N)[C@H]2O)C[C@@H]2O[C@](O)(C[C@@H](O)[C@H](O)CC[C@@H](O)C[C@@H](O)C[C@@H](O)CC(=O)O[C@H]1C)C[C@H](O)[C@H]2C(=O)O = 0.929

**Query** What does the data say about its fractional viability? Entry: Cc1cc(C(C#N)c2ccc(Cl)cc2)c(Cl)cc1NC(=O)c1cc(I)cc(I)c1O (configuration not stated)
**Result** 1.13

**Query** Check Cc1cccc([C@H](C)c2c[nH]cn2)c1C too.
**Result** 1.06

**Query** // same read-out, input: C[C@@H]1O[C@@H](O[C@H]2C[C@@H](O)[C@]3(CO)[C@H]4[C@H](O)C[C@]5(C)[C@@H](C6=CC(=O)OC6)CC[C@]5(O)[C@@H]4CC[C@]3(O)C2)[C@H](O)[C@H](O)[C@H]1O
**Result** 0.05

**Query** Another molecule: Cn1c(COP(=O)(NCCBr)NCCBr)cnc1[N+](=O)[O-]
**Result** 1.47

**Query** Same question, CC(C)(C)[C@]1(O)CC2OC(=O)CC23C(=O)OC2OC(=O)[C@H](O)C231 (some centres not stated) [Bilobalide] this time
**Result** 0.854

====

Form field: fractional viability (one value per entry).
System: TYKNU
Assay: fractional viability relative to vehicle; TYKNU is a high-grade serous ovarian cancer line; higher = less growth inhibition
Conditions: 2uM; 72 h; genotype: DNM1L knockout (sgDNM1L #1)
The full ranking holds about 2,000 compounds; the median of “fractional viability relative to vehicle” is about 0.91, and the lowest 2% start at about 0.045. This excerpt belongs to a sample that is enriched for the lowest values.
Lab note: jot down the number only; don't add units.

The following molecules have reported results that may help.
CCN1CCN(C(=O)Cc2ccc(Nc3ncc(F)c(Nc4ccc(C(=O)Nc5ccccc5Cl)cc4)n3)cc2)CC1 = 0.904
COc1cc(-n2c(=S)[nH]c3ccccc3c2=O)c(Cl)cc1Cl = 0.879
NC(=O)CN1CC(O)CC1=O (configuration not stated) = 0.755

**Query** Would you mind telling me what fractional viability value was observed for CCN(CC)C(=O)c1ccc(C2=CC3(CCNCC3)Oc3cccc(O)c32)cc1 ?
**Result** 1.05

**Query** What do you have for CC(C)=CCC[C@]1(C)C=Cc2c(O)c3c(c(CC=C(C)C)c2O1)O[C@]12C(=C[C@@H]4C[C@H]1C(C)(C)O[C@@]2(C/C=C(/C)C(=O)O)C4=O)C3=O ?
**Result** 0.068

**Query** Another molecule to check: O=c1[nH]c2ccc(Cl)cc2c(N[C@@H]2CN3CCC2CC3)c1-c1nc2ccccc2[nH]1
**Result** 0.154

**Query** Cool, now CCc1c(C(=O)C(N)=O)c2c(OCC(=O)O)cccc2n1Cc1ccccc1
**Result** 1.09
